Here, each record is paired with measured protein stability index data.
B1: PPFIA4 (parent)
chain: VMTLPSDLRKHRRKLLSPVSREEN

Variants of: B1
Protocol description: protein stability index of a GFP-peptide fusion (GPS, HEK-293T) (PSI 1-6); higher = more stable;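 further: lentivirally expressed fusions sorted by FACS into six bins by GFP to DsRed ratio, PSI derived from sequencing read proportions per bin multiplied by bin number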
Test conditions: c terminus: a fixed tail appended
The response must contain the number and no unit.

Here are 3 variants together with their reported answers.
>>> result("VMTLPSDLQKHRRKLLSPVSREEN [R9Q]")
4.49
>>> result("VMTLPSDLRKGRRKLLSPVSREEN [H11G]")
3.79
>>> result("VMTLPSDLRKHRRKLLSPVSRKEN [E22K]")
3.67

Task: GET /values?readout=protein stability index&item= VMTLPSDLRKYRRKLLSPVSREEN [H11Y]
Result: 3.35

Task: Value lookup for protein stability index; key = VMALPSDLRKHRRKLLSPVSREEN [T3A]
Result: 3.92

Task: What does the data say about its protein stability index? Entry: VMTLWSDLRKHRRKLLSPVSREEN [P5W]
Result: 2.25

Task: Record request: protein stability index value, item VMTLPSDLRKLRRKLLSPVSREEN [H11L]
Result: 3.14

Task: Using the record for VMTLPSDLRKSRRKLLSPVSREEN [H11S] , report its protein stability index.
Result: 3.75

Task: Dear colleague, I am looking for the recorded protein stability index of the following variant: VMSLPSDLRKHRRKLLSPVSREEN [T3S]
Result: 3.71

Task: Recorded protein stability index of VMTLPSDPRKHRRKLLSPVSREEN [L8P] , please.
Result: 3.84

Task: // protein stability index lookup, key: VMTLPSDLRKHRRKLLSPPSREEN [V19P]
Result: 4.53
